Source of measurements: paper PMC6478719

- assayed target: Olfr73 (Mus musculus, UniProt Q920P2)
- Construct: expressed in transfected cells; host or cells: Hana3A cells (HEK293T-derived), co-transfected with pRTP1S and pCRE-SEAP
- experiment description: SEAP reporter assay (cAMP signalling) of Olfr73 activation in Hana3A cells
- Type: cell-based
- assay setup: EC50 (μM), Supplementary Table 2; cellular assays; triplicate; n.a. = no active response
- Method: As described in detail elsewhere[16],[45],[47] […] The assays were performed as described in detail elsewhere[16],[45],[47] twenty hours before transfection Hana3A cells were seeded into 96 wells (Greiner, Germany) at a concentration of 3.5 × 10^6 cells per ml of medium. […] Absorbance was measured at 410 nm using a multiwell absorbance plate reader (Molecular Devices, USA) at 1- to 4-min intervals for a period of 5 min to determine SEAP expression dependent pNPP hydrolysis rates (A410 /min). […]
Quick rule for you: EC50 under 100 µM gets Y, anything else gets N.

Example entries and their recorded answers appear below.
CC/C=C/c1ccc(OC)c(OC)c1    Y
CCCc1ccc(O)c(OC)c1 [A5, dihydroeugenol]    Y
Oc1ccc(C2CCCCC2)cc1    Y
C=CCc1cc(C(C)=O)ccc1O [A9, 1-(3-allyl-4-hydroxyphenyl)-ethanone]    Y

Asked: Decide: EC50 of CCOC(=O)c1ccc(O)c(OC)c1 [A16, ethylvanillate] strictly below 100 µM?
Given back: N

====

- assayed target: Olfr73 (Mus musculus, UniProt Q920P2)
- Construct: expressed in transfected cells; host or cells: Hana3A cells (HEK293T-derived), co-transfected with pRTP1S and pCRE-SEAP
- experiment description: SEAP reporter assay (cAMP signalling) of Olfr73 activation in Hana3A cells
- Format: cell-based
- assay setup: Fig. 4, newly found agonists A1-A17; read-out: EC50 (in brackets, Fig. 4)
Reported pEC50 values for the following compounds.
Scale: negative log10 of molar concentration, which is what pEC50 denotes.

// known answers, use as guide
COc1cc(C(C)(C)C)ccc1O [A4, 4-tert-butyl-2-methoxyphenol]    4.25
CC(C)Cc1ccc(O)cc1 [A1, p-isobutylphenol]    4.89
COc1cc2c(cc1OC)CCCC2 [A7]    4.06

// next item, pEC50 requested
Asked: pEC50 for CCCCCC1CCC(=O)CC1 [A6, 4-pentylcyclohexanone] ?
Given back: 4.20

====

- assayed target: Olfr73 (Mus musculus, UniProt Q920P2)
- Construct: expressed in transfected cells; host or cells: Hana3A cells (HEK293T-derived), co-transfected with pRTP1S and pCRE-SEAP
- Sequence (Q920P2 1-313): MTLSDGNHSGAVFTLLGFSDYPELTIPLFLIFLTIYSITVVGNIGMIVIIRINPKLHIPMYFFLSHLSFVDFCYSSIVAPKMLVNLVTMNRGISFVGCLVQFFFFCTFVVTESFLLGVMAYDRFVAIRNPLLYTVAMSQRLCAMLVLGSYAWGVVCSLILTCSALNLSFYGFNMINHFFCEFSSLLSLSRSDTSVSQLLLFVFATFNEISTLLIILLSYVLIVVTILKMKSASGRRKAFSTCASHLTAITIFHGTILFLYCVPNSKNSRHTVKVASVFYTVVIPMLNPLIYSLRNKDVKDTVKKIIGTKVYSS
- experiment description: SEAP reporter assay (cAMP signalling) of Olfr73 activation in Hana3A cells
- Format: cell-based
- assay setup: Supplementary Table 2; cellular assays; triplicate; n.a. = no active response; read-out: EC50
- Method: As described in detail elsewhere[16],[45],[47] […] The assays were performed as described in detail elsewhere[16],[45],[47] twenty hours before transfection Hana3A cells were seeded into 96 wells (Greiner, Germany) at a concentration of 3.5 × 10^6 cells per ml of medium. […] Absorbance was measured at 410 nm using a multiwell absorbance plate reader (Molecular Devices, USA) at 1- to 4-min intervals for a period of 5 min to determine SEAP expression dependent pNPP hydrolysis rates (A410 /min). […]
measurement kind: pEC50
Scale: negative log10 of molar concentration, which is what pEC50 denotes.

// known answers, use as guide
C/C=C/c1ccc(OCC)c(OC)c1    3.71
COc1cc(C(C)(C)C)ccc1O    4.25
CCCCCC1CCC(=O)CC1    4.20

Asked: pEC50 for CCC(=O)c1ccc(O)cc1 [A15, 4-hydroxypropiophenone] ?
Given back: 3.30

Asked: pEC50 for `CC(C)=C[C@H]1C[C@H](C)CCO1` ?
Given back: 3.20

Asked: pEC50 for CC(=O)c1cc(C)c(O)c(C)c1 [A13, 4-hydroxy-3,5-dimethylacetophenone] ?
Given back: 3.60

Asked: pEC50 for CC(=O)c1cc(C)c(O)cc1C [A2, 2’,5’-dimethyl -4’hydroxyacetophenone] ?
Given back: 4.80

Asked: pEC50 for `CC(C)Cc1ccc(O)cc1` ?
Given back: 4.89

Asked: pEC50 for `COc1cc2c(cc1OC)CCCC2` ?
Given back: 4.05

Asked: pEC50 for `COc1cc2ccccc2cc1OC` ?
Given back: 3.92
